Assay: HUVEC growth inhibition – cell-based, human, primary screen (AID 575);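 also: 100% = median of untreated cell wells with 0.1% DMSO on each plate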
Details: HUVEC proliferation, CellTiter-Glo luminescence, 72 h; at 10 µM; active compounds read low

[
  {
    "compound": "CN1CCN(c2nc3ccccc3c(=O)n2-c2ccccc2)CC1",
    "viability, %": 79.9
  },
  {
    "compound": "OC(CNC1CCCCC1)c1ccccc1 (stereo unspecified)",
    "viability, %": 111
  },
  {
    "compound": "COc1ccc(CCn2c(O)c(C=NCCCN(C)C)c(=O)[nH]c2=O)cc1OC",
    "viability, %": 103
  },
  {
    "compound": "Cc1ccc(C)c(NC2=NCCCS2)c1",
    "viability, %": 91.9
  },
  {
    "compound": "CC(C)(C)OC(=O)c1c(N)n(Cc2ccco2)c2nc3ccccc3nc12",
    "viability, %": 62.5
  },
  {
    "compound": "COP(=O)(OC)C(O)C(Cl)(Cl)Cl (stereo unspecified)",
    "viability, %": 95.5
  }
]

* * *

Molecular target: Pantothenate synthetase (Mycobacterium tuberculosis (strain ATCC 25618 / H37Rv))
Assay: Coupled enzyme confirmation of inhibitors against recombinant Mtb PanC (AID 375);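 also: 0% = full reaction with vehicle and 100% = no enzyme background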
Conditions: coupled enzyme assay; at 10 µM, active compounds read high
In this section we review reported inhibition values for a set of compounds.

[
  {
    "compound": "COc1ccc(C)cc1NCc1cccc(OC)c1OC",
    "inhibition [%]": 0
  },
  {
    "compound": "Cc1ccc2c(c1C)NC(C)CC2C (centres undefined)",
    "inhibition [%]": 0
  },
  {
    "compound": "CCC(Sc1ccc2nnc(-c3ccc(F)cc3)n2n1)C(=O)OC (centres undefined)",
    "inhibition [%]": 0
  },
  {
    "compound": "COc1ccc(OC)c(-c2cc(C(=O)NCc3cccs3)no2)c1",
    "inhibition [%]": 0
  },
  {
    "compound": "Cc1[nH]nc(-c2ccc(O)c(C)c2O)c1-c1cnn(-c2ccccc2)c1",
    "inhibition [%]": 0
  },
  {
    "compound": "CCCC1CCC(C(=O)Nn2c(C)nc3ccccc3c2=O)CC1 (centres undefined)",
    "inhibition [%]": 8
  },
  {
    "compound": "O=C(NCc1ccco1)c1csc(Nc2ccccc2Cl)n1",
    "inhibition [%]": 0
  },
  {
    "compound": "Cc1ccc(CNC(=O)c2coc(=O)c3ccccc23)o1",
    "inhibition [%]": 0
  },
  {
    "compound": "CCCc1cc(-c2n[nH]c(C)c2-c2ccc(C(=O)OCC)o2)c(O)cc1O",
    "inhibition [%]": 6
  },
  {
    "compound": "CCSCCC(NC1=CC(=O)CC(C)(C)C1)C(=O)O (centres undefined)",
    "inhibition [%]": 0
  },
  {
    "compound": "COc1cc(Cn2c(-c3nonc3N)nc3ccccc32)ccc1C",
    "inhibition [%]": 0
  },
  {
    "compound": "Nc1ccc(S(=O)(=O)c2ccc(N)cc2)cc1",
    "inhibition [%]": 0
  },
  {
    "compound": "CC1(C)Cc2c(sc3c2C2=NCCN2C=N3)CO1",
    "inhibition [%]": 0
  },
  {
    "compound": "Cc1ccccc1NC(=O)C1CC(=O)N(c2ccccc2F)C1 (centres undefined)",
    "inhibition [%]": 1
  },
  {
    "compound": "Cc1ccc(C(=O)Nc2ccc3c(c2)OCO3)cc1S(=O)(=O)N1CCCC1",
    "inhibition [%]": 0
  },
  {
    "compound": "CCOCCOc1nc2c(c(=O)n(C)c(=O)n2C)n1Cc1ccc(C)cc1",
    "inhibition [%]": 0
  },
  {
    "compound": "O=C1c2ccccc2C(Nc2ccc3nc(-c4cccnc4)[nH]c3c2)N1Cc1ccco1 (centres undefined)",
    "inhibition [%]": 0
  },
  {
    "compound": "Cc1c(C)n(C(=O)CN2CCN(c3ccccn3)CC2)c2ccccc12",
    "inhibition [%]": 0
  },
  {
    "compound": "CC(=O)Nc1cccc(NC(=O)c2ccco2)c1",
    "inhibition [%]": 0
  },
  {
    "compound": "O=C(NCC(c1cccnc1)N1CCN(c2ccccc2)CC1)c1ccc2c(c1)OCO2 (centres undefined)",
    "inhibition [%]": 0
  },
  {
    "compound": "CCOC(=O)N1CCC(=C2c3ccc(Cl)cc3CCc3cccnc32)CC1",
    "inhibition [%]": 5
  },
  {
    "compound": "O=C(O)C1C2CCC(O2)C1C(=O)NCCC1=CCCCC1 (centres undefined)",
    "inhibition [%]": 3
  },
  {
    "compound": "CC(C)c1ccc(C(O)c2cnc(C(C)C)n2C)cc1 (centres undefined)",
    "inhibition [%]": 1
  },
  {
    "compound": "CCCc1cc(-n2ccnc2)n2c(nc3ccccc32)c1C#N",
    "inhibition [%]": 0
  }
]

* * *

Biological target: Pantothenate synthetase (Mycobacterium tuberculosis (strain ATCC 25618 / H37Rv)) (UniProt P9WIL5)
Sequence (P9WIL5 whole entry, looked up): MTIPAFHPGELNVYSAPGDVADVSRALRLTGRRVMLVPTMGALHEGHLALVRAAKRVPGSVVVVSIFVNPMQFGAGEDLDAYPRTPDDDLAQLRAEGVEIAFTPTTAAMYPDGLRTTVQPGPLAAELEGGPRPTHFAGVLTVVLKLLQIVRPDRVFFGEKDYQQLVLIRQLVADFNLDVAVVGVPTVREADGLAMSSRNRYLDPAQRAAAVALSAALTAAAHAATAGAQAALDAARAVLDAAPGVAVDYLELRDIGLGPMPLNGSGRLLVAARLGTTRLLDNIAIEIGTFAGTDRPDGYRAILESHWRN
Assay: Coupled enzyme confirmation of inhibitors against recombinant Mtb PanC (AID 375);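 also: 0% = full reaction with vehicle and 100% = no enzyme background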
Conditions: coupled enzyme assay; at 10 µM, active compounds read high

[
  {
    "compound": "O=C(NCc1ccco1)c1ccccc1Nc1ccc(F)cc1",
    "scaleUnit": "%",
    "inhibition": 0
  },
  {
    "compound": "COc1ccccc1N1CCN(c2cc(=O)n(Cc3ccc(F)cc3)c(=O)[nH]2)CC1",
    "scaleUnit": "%",
    "inhibition": 0
  },
  {
    "compound": "CC(C)c1cc(C(=O)NCc2ccco2)no1",
    "scaleUnit": "%",
    "inhibition": 0
  },
  {
    "compound": "C=CCSc1nc2c(c(=O)[nH]c(=O)n2C)n1CC",
    "scaleUnit": "%",
    "inhibition": 2
  },
  {
    "compound": "CC(=O)c1ccc(-c2nc3ccccc3n2C)o1",
    "scaleUnit": "%",
    "inhibition": 0
  },
  {
    "compound": "C(/CCc1ccccc1)=N\\n1cnnc1",
    "scaleUnit": "%",
    "inhibition": 8
  },
  {
    "compound": "NCCN1CCN(CCN)CC1",
    "scaleUnit": "%",
    "inhibition": 0
  },
  {
    "compound": "O=C(COc1ccccc1)N1CCN(c2ncnc3c2cnn3-c2ccccc2)CC1",
    "scaleUnit": "%",
    "inhibition": 0
  },
  {
    "compound": "O=C(Cn1nc(-c2ccc3c(c2)OCCO3)ccc1=O)Nc1ccc(N2CCOCC2)cc1",
    "scaleUnit": "%",
    "inhibition": 0
  },
  {
    "compound": "COc1ccc(Cn2nnnc2C(c2cccnc2)N2CCN(c3ccc(O)cc3)CC2)cc1 (configuration not stated)",
    "scaleUnit": "%",
    "inhibition": 0
  },
  {
    "compound": "COc1cccc(-n2c(SC3CCOC3=O)nc3ccccc3c2=O)c1 (configuration not stated)",
    "scaleUnit": "%",
    "inhibition": 2
  },
  {
    "compound": "CCOc1ccc(-c2nnn(CC(=O)N3CCN(c4ccc(F)cc4)CC3)n2)cc1OCC",
    "scaleUnit": "%",
    "inhibition": 0
  }
]

* * *

Target: Pantothenate synthetase (Mycobacterium tuberculosis (strain ATCC 25618 / H37Rv))
Experiment: Coupled enzyme confirmation of inhibitors against recombinant Mtb PanC (AID 375);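 also: 0% = full reaction with vehicle and 100% = no enzyme background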
Conditions: coupled enzyme assay; at 10 µM, active compounds read high
endpointLabel: inhibition (%)

[
  {
    "compound": "CC(C)(C)c1ccc(C(=O)N2CCC(C(=O)NCc3ccncc3)CC2)cc1",
    "studyTarget": "Pantothenate synthetase (Mycobacterium tuberculosis (strain ATCC 25618 / H37Rv))",
    "testResult": 0
  },
  {
    "compound": "CCc1cc(=O)oc2c(CN3CCN(C)CC3)c(O)c(Cl)cc12",
    "studyTarget": "Pantothenate synthetase (Mycobacterium tuberculosis (strain ATCC 25618 / H37Rv))",
    "testResult": 5
  },
  {
    "compound": "CCC(C)NC(=O)c1ccccc1NC(=O)C(C)N(c1ccccc1)S(C)(=O)=O (configuration not stated)",
    "studyTarget": "Pantothenate synthetase (Mycobacterium tuberculosis (strain ATCC 25618 / H37Rv))",
    "testResult": 0
  },
  {
    "compound": "Cc1nc2ccc(C(=O)c3ccccc3)cc2[nH]1",
    "studyTarget": "Pantothenate synthetase (Mycobacterium tuberculosis (strain ATCC 25618 / H37Rv))",
    "testResult": 0
  },
  {
    "compound": "CSC1=N/C(=C\\C=C\\c2cccs2)C(=O)S1",
    "studyTarget": "Pantothenate synthetase (Mycobacterium tuberculosis (strain ATCC 25618 / H37Rv))",
    "testResult": 1
  },
  {
    "compound": "Cc1ccccc1Cn1nc(C)c(NC(=O)c2noc3c2CCCC3)c1C",
    "studyTarget": "Pantothenate synthetase (Mycobacterium tuberculosis (strain ATCC 25618 / H37Rv))",
    "testResult": 5
  },
  {
    "compound": "CCn1c2ccccc2c2cc(N)ccc21",
    "studyTarget": "Pantothenate synthetase (Mycobacterium tuberculosis (strain ATCC 25618 / H37Rv))",
    "testResult": 0
  },
  {
    "compound": "COc1ccc(CCNC(=O)CN(c2ccccc2OC)S(C)(=O)=O)cc1",
    "studyTarget": "Pantothenate synthetase (Mycobacterium tuberculosis (strain ATCC 25618 / H37Rv))",
    "testResult": 0
  },
  {
    "compound": "O=C(NCc1cccnc1)/C(=N\\O)c1ccccc1",
    "studyTarget": "Pantothenate synthetase (Mycobacterium tuberculosis (strain ATCC 25618 / H37Rv))",
    "testResult": 0
  },
  {
    "compound": "CC1CCN(c2nc3c(c(=O)[nH]c(=O)n3C)n2CCSc2ncccn2)CC1",
    "studyTarget": "Pantothenate synthetase (Mycobacterium tuberculosis (strain ATCC 25618 / H37Rv))",
    "testResult": 0
  },
  {
    "compound": "CC(C)Cn1c(CN2CCN(c3ccccc3F)CC2)nc2c1c(=O)[nH]c(=O)n2C",
    "studyTarget": "Pantothenate synthetase (Mycobacterium tuberculosis (strain ATCC 25618 / H37Rv))",
    "testResult": 0
  },
  {
    "compound": "O=C1NCCCc2c1no[n+]2[O-]",
    "studyTarget": "Pantothenate synthetase (Mycobacterium tuberculosis (strain ATCC 25618 / H37Rv))",
    "testResult": 18
  }
]
